Target: hRad51 (Homo sapiens, UniProt Q06609 1-339)
Sequence (Q06609 whole entry): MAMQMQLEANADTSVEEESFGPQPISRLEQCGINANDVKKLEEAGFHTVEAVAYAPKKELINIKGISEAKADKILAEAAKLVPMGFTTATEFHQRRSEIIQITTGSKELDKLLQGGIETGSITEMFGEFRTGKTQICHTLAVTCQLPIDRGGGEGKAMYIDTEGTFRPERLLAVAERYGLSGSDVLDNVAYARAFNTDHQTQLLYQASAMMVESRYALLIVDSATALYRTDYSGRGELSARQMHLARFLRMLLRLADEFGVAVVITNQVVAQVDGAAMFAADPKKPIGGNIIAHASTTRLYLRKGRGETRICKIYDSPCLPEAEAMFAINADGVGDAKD
Assay: fluorescence polarization; ATP; FP: 25 mM HEPES pH 7.5, 1 mM Mg2+, 1 mM ATP, 1 mM DTT, 50 mM NaCl (100 mM in Fig. 3), 100 ug/ml BSA, 0.02% NP-40, 70 uM Ca2+ or as indicated, 3 nM 84-nt ssDNA
Conditions: chain copies: 28; label: 5' Alexa Fluor 488
ENDPOINT: Kd (nM)
Give a bare numeral; the unit nM is implied.

For 84 nt-ssDNA (ssDNA) DNA: GGTAGCGGTTGGGTGAGTGGTGGGGAGGGTCGGGAGGTGGCGTAGAAACATGATAGGAATGTGAATGAATGAAGTACAAGTAAA , what is its reported Kd? 342
